- assayed_target: NHERF2_2, Q15599
- Sequence (Q15599 142-238): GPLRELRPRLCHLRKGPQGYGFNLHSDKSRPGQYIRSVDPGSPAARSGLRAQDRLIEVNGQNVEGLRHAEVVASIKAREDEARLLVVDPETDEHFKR
- assay_procedure: holdup assay
- Parameters: key: below the threshold = too weak to quantify, mostly under pKd 3.1 to 4
- conditions: plain residues with an end cap or a label only (N-terminal biotin on a linker: ado-ado)
recorded_metric: pKd
Give the value as a plain number.

Illustrative cases are given below, each with its answer.
SARSRLSSNL [HCN2, Q9UL51] ... 4.44
DDPSTAETVL [ABCA7, Q8IZY2] ... 4.42
EKKTLIGIKL [GOT1L1, Q8NHS2] ... 3.64
VKPQVSESKL [ACOT8, O14734] ... 4.56

For the next question, use this binder.
Which pKd reading was recorded for the binder EVEEFPETSV [TRPV3, Q8NET8] ? 3.72

The reported measurements were obtained from paper PMC9482650.
